B1: GA-binding protein alpha chain, residues 172 to 250; numbered along this chain, Q06546 (parent)
chain: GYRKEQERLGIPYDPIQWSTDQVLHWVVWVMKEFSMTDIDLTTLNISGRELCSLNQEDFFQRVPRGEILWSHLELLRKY

- Variants of: B1
- test.details: abundance fitness (aPCA) (normalised: wild type 0, dead -1); higher = more abundant; growth selection in yeast, the domain comes from the species named
- test.conditions: Homo sapiens
Catalogue of variants with associated abundance fitness
Respond with the number and no other words.

Recorded results for 10 variants are shown here.
seq	endpoint.result
GYRKEQERLGIPYDPIQWSTDQVLHWVVWVMKEFSMTDIDLTTLNIPGRELCSLNQEDFFQRVPRGEILWSHLELLRKY	-0.04
GYRKEQERLGIPYDPIQWSTDQVLHWVVWVMKEFSMTDIDLTTLNPSGRELCSLNQEDFFQRVPRGEILWSHLELLRKY	-1
GYRKEQERLGIPYDPIQWSTDQVLHWVVWVMKEFSMTDIDLTTLNICGRELCSLNQEDFFQRVPRGEILWSHLELLRKY	-0.039
GYRKEQERLGIPYDPIQWSTDQVLHWVVWVMKEFSMTDIDLTTLNISGRELCSLNQEDFFQRVPRGEILWSHLELLIKY	-0.23
GYRKEQERLGIPYDPIQWSTDQVLHWVVWVMKEFSMTDIDLTTLNISGRELCSLNQEDFFQRVPRGEILWSHLELMRKY	-0.093
GYRKEQERLGIPYDPIQWSTDQVLHWVVWVMKEFSMTDIDLTTLNISGRELCSLNQEDFFQRVPRGEILWSHLELLRKW	-0.09
GYRKEQERLGIPYDLIQWSTDQVLHWVVWVMKEFSMTDIDLTTLNISGRELCSLNQEDFFQRVPRGEILWSHLELLRKY	-0.72
GYRKEQERLGIPYDPIQWSTDQVLHKVVWVMKEFSMTDIDLTTLNISGRELCSLNQEDFFQRVPRGEILWSHLELLRKY	-0.906
GYRKEQERLGIPYDPIQWSTDQVLHWVVWVMKEFSMTDIDLTTLNISGIELCSLNQEDFFQRVPRGEILWSHLELLRKY	-0.203
GYRKEQERLGIPYDPIQWSTDQVLHWVVWVMKEFFMTDIDLTTLNISGRELCSLNQEDFFQRVPRGEILWSHLELLRKY	-0.42

Moving on to another variant below.
What value of abundance fitness has been recorded for this entry: `GYRKEQERLGIWYDPIQWSTDQVLHWVVWVMKEFSMTDIDLTTLNISGRELCSLNQEDFFQRVPRGEILWSHLELLRKY`
-0.98
